Measured Residual turnover [%] of individual entries
- System: HPPD polypeptides
- assay.summary: coupled HPPD activity assay: turnover and residual turnover in crude extracts
- Type: biochemical, Pseudomonas fluorescens
- recorded.conditions: 100 μM Cmpd. 1; signal change with inhibitor divided by signal change without inhibitor
Express your answer in %, writing the number without its unit.

[
  {
    "molecule": "20 (protein, mutant HPPD polypeptide) MADLYENPMGLMGFEFIEFASPTPGTLEPIFEIMGFTKVATHRSKNVHLYRQGEINLILNNEPNSIASYFAAEHGPSVCGMAFRVKDSQKAYNRALELGAQPIHIDTGPMELNLPAIKGIGGAPLYLIDRFGEGSSIYDIDFVYLEGVERNPVGAGLKVIDHLTHNVYRGRMVYWANFYEKLFNFREARYFDIKGEYTGLTSKAMSAPDGMIRIPLNEESSKGAGQIEEFLMQFNGEGIQHVAFLTDDLVKTWDALKKIGMRFMTAPSDEYYEMLEGRLPDHGEPVDQLQARGILLDGSSVEGDKRLLLQIFSETLMGPVFFEFIQRKGDDGFGPDSFKVLFESVERDQVRRGVLTAD",
    "Residual turnover [%], %": 53
  }
]

Shifting focus to the molecule that follows.
Return Residual turnover [%] for the following molecule: 10 (protein, mutant HPPD polypeptide) MADLYENPMGLMGFEFIEFASPTPGTLEPIFEIMGFTKVATHRSKNVHLYRQGEINLILNNEPNSIASYFAAEHGPSVCGMAFRVKDSQKAYNRALELGAQPIHIDTGPMELNLPAIKGIGGAPLYLIDRFGEGSSIYDIDFVYLEGVERNPVGAGLKVIDHLTHNVYRGRMVYWANFYEKLFNFREARYFDIKGEYTGLTSKAMSAPDGMIRIPLNEESSKGAGQIEEFLMQFNGEGIQHVAFLTDDLVKTWDALKKIGMRFMTAPGDTYYEMLEGRLPDHGEPVDQLQARGILLDGSSVEGDKRLLLQIFSETLMGPVFFEFIQRKGDDGFGPDSFKVLFESVERDQVRRGVLTAD 56
